Reference source for all entries: patent US20250136606A1

Task for the reader: assign each of the following compounds its reported pEC50.
biological target: TRPML3 (Homo sapiens, UniProt Q8TDD5); construct: expressed in transfected cells; experiment: Fluorescent TRPML3 assay (performed as for TRPML1, substituting the TRPML3 subtype); type: cell-based
Sequence (Q8TDD5 whole entry): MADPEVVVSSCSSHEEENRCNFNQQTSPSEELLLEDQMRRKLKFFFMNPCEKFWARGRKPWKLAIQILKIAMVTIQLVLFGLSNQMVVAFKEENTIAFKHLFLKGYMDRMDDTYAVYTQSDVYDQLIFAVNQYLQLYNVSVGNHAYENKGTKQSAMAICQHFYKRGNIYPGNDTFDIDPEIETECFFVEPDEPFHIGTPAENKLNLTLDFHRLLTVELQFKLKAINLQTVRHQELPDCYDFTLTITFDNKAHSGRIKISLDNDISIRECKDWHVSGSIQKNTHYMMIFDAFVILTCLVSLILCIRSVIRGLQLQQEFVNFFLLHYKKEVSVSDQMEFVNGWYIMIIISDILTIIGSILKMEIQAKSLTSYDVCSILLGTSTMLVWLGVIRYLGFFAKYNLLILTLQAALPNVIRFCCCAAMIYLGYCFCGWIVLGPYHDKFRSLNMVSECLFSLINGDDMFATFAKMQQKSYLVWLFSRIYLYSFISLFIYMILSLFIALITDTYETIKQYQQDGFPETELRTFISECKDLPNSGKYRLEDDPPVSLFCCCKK
pEC50: −log10 of the molar value.

Report pEC50 for C[C@@H]1CN(c2ncnc3c2c(C(F)(F)F)cn3-c2cccc(C#N)c2)[C@@H](C)CN1C(=O)OC(C)(C)C [Compound 513] please.
> 7.00

Subsequent entry: C[C@H]1CN(C(=O)OC(C)(C)C)CCN1c1nccc2c1c(-c1ccccc1F)cn2-c1cccc(F)c1 [Compound 703]
> 7.00

And what about the compound C[C@H]1CN(C(=O)OC(C)(C)C)CCN1c1nccc2c1c(C1CCC1)cn2-c1cccc(F)c1 [Compound 706] ?
6.30 to 7.00

What do you have for C[C@@H]1CN(c2ncnc3c2c(C(F)(F)F)cn3-c2cc(C#N)ccn2)[C@@H](C)CN1C(=O)OC1(C(F)(F)F)CCC1 [Compound 604] ?
> 7.00

Thanks! And C[C@@H]1CN(c2ncnc3c2c(OC(F)F)cn3-c2cc(Cl)ccn2)[C@@H](C)CN1C(=O)OC(C)(C)C [Compound 521] ?
> 7.00

Entry to check: C[C@@H]1CN(c2ncnc3c2c(C(F)(F)F)cn3C2CCCC2)[C@@H](C)CN1C(=O)OC(C)(C)C [Compound 626]
5.70 to 6.30

Try C[C@@H]1CN(c2ncnc3c2c(C(F)(F)F)cn3C2CCCCC2)[C@@H](C)CN1C(=O)OC(C)(C)C [Compound 625] next.
< 5.70

* * *

biological target: TRPML3 (Homo sapiens, UniProt Q8TDD5); construct: expressed in transfected cells; experiment: Fluorescent TRPML3 assay (performed as for TRPML1, substituting the TRPML3 subtype); assay type: cell-based; conditions: fluorescent calcium assay
MEASURED PARAMETER: EC50

Which EC50 value belongs to Cc1nccnc1-c1cn(-c2ccc(F)cc2)c2ncnc(N3C[C@@H](C)N(C(=O)OC(C)(C)C)C[C@@H]3C)c12 ?
100 to 500 nM

Moving on to the next molecule: C[C@H]1CN(C(=O)OC(C)(C)C)CCN1c1ncnc2c1c(N1CCCC1=O)cn2-c1cccc(Cl)c1
500 to 2000 nM

Can you check CC[C@H]1CN(c2ncnc3c2c(C2CC2)cn3-c2cc(F)cc(F)c2)CCN1C(=O)OC(C)(C)C next?
100 to 500 nM

Now the molecule C[C@@H]1CN(c2ncnc3c2c(-c2ccccc2F)cn3-c2cnn(C)c2)[C@@H](C)CN1C(=O)OC(C)(C)C
100 to 500 nM

Another: C[C@H]1CN(C(=O)OC(C)(C)C)CCN1c1ncnc2c1c(C1CCOCC1)cn2-c1cc(F)cc(F)c1
100 to 500 nM

Here is the next molecule: Cc1nccnc1-c1cn(-c2cc(F)cc(F)c2)c2ncnc(N3CCN(C(=O)OC(C)(C)C)[C@H](C)C3)c12
100 to 500 nM

Now give it for C[C@H]1CN(C(=O)OC(C)(C)C)CCN1c1ncnc2c1c(N1CCCC1)cn2-c1cccc(Cl)c1 too.
< 100 nM

Check CC(C)(C)OC(=O)N1CCN(c2ncnc3c2c(C2CC2)cn3-c2ccc(F)c(F)c2)CC1 too.
100 to 500 nM

Also Cc1cn(-c2cc(C#N)ccn2)c2ncnc(N3C[C@@H](C)N(C(=O)OC(C)(C)C)C[C@@H]3C)c12 , if possible.
< 100 nM

Same lookup for CCOC(=O)N1CCN(c2ncnc3c2c(C2CC2)cn3-c2ccc(Cl)cc2)[C@@H](C)C1 , please.
500 to 2000 nM

Same for C[C@H]1CN(C(=O)OC(C)(C)C)CCN1c1ncnc2c1c(-c1ccccc1F)cn2-c1ncc(C#N)s1
< 100 nM

Param item: C[C@@H]1CN(c2ncnc3c2c(-c2cccnc2)cn3-c2cc(F)cc(F)c2)CCN1C(=O)OC(C)(C)C
100 to 500 nM

And C[C@@H]1CN(c2ncnc3c2c(-c2ccccc2F)cn3-c2ncc(C#N)s2)[C@@H](C)CN1C(=O)OC(C)(C)C ?
< 100 nM

Now give it for COc1cncc(-n2cc(C3CC3)c3c(N4CCN(C(=O)OC(C)(C)C)C[C@@H]4C)ncnc32)c1 too.
100 to 500 nM

Another molecule to check: CC(C)(OC(=O)N1CCN(c2ncnc3c2c(C2CC2)cn3-c2cc(C#N)ccn2)CC1)C(F)(F)F
100 to 500 nM

Repeat with Cc1nccnc1-c1cn(-c2cc(F)cc(F)c2)c2ncnc(N3CCN(C(=O)OC(C)C)C[C@@H]3C)c12
500 to 2000 nM

Now the same for C[C@H]1CN(C(=O)OC(C)(C)C)CCN1c1ncnc2c1c(C1(C)CC1)cn2-c1cccc(C#N)c1
< 100 nM

Also CCN(CC)c1cn(-c2cccc(Cl)c2)c2ncnc(N3CCN(C(=O)OC(C)(C)C)C[C@@H]3C)c12 , if possible.
< 100 nM

Please answer likewise for CCOC(=O)N1C[C@H](C)N(c2ncnc3c2c(-c2ccccc2F)cn3-c2cncc(OC)c2)C[C@H]1C
500 to 2000 nM

Query C[C@H]1CN(C(=O)OC(C)(C)C)CCN1c1ncnc2c1c(C1=CCOCC1)cn2-c1cccc(F)c1 next
100 to 500 nM

Ok, now CC(C)(C)OC(=O)N1CCN(c2ncnc3c2c(-c2ccccc2F)cn3-c2cc(C#N)ccn2)CC12CC2
< 100 nM

Another molecule to look at: C[C@H]1CN(C(=O)OC(C)(C)C)CCN1c1ncnc2c1c(-c1cccnc1)cn2-c1cc(C#N)ccn1
< 100 nM

Field entry: C[C@H]1CN(C(=O)OC(C)(C)C)CCN1c1nccc2c1c(C1CC1)cn2-c1cc(C#N)ccn1
< 100 nM

What do you have for CC(C)(C)OC(=O)N1CCN(c2ncnc3c2c(C2CC2)cn3-c2cc(C#N)ccn2)CC1(C)C ?
< 100 nM

Field entry: CC(C)(C)OC(=O)N1CCN(c2ncnc3c2c(C2CC2)cn3-c2cc(C#N)ccn2)C(C)(C)C1
< 100 nM

Further, for C[C@H]1CN(C(=O)OC(C)(C)C)CCN1c1ncnc2c1c(N1CCOCC1)cn2-c1cccc(C#N)c1 ?
< 100 nM

Please do the same for C[C@@H]1CN(c2ncnc3c2c(C2CC2)cn3-c2cccc(Cl)c2F)CCN1C(=O)OC(C)(C)C as well.
< 100 nM

Try this molecule next: C[C@H]1CN(C(=O)OC(C)(C)C)CCN1c1ncnc2c1c(-c1ccccn1)cn2-c1cc(C#N)ccn1
< 100 nM

Same question, C[C@@H]1CN(c2ncnc3c2c(-c2ccccc2F)cn3-c2ccccn2)[C@@H](C)CN1C(=O)OC(C)(C)C this time
< 100 nM

* * *

Provide the recorded EC50 for the entries that follow.
Target: TRPML2 (Homo sapiens)
Construct: expressed in transfected cells
Sequence (Q8IZK6 1-566): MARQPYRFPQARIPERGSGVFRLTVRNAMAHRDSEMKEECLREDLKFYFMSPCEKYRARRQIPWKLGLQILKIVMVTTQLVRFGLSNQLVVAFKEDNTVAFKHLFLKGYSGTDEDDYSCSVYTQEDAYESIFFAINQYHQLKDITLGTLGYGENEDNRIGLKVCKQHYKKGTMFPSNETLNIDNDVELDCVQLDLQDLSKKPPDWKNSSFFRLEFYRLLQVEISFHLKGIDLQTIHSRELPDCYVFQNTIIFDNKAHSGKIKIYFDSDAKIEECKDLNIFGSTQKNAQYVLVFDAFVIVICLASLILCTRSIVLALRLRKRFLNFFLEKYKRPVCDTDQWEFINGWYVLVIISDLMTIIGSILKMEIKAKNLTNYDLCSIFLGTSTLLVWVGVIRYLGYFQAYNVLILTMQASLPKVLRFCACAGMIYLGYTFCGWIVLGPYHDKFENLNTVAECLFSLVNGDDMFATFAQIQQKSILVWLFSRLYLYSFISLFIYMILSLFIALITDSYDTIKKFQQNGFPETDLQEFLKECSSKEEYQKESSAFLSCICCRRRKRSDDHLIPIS
Assay: Fluorescent TRPML2 assay (performed as for TRPML1, substituting the TRPML2 subtype)
Type: cell-based
Details: fluorescent calcium assay

Tell me the measured EC50 of C[C@@H]1CN(c2ncnc3c2c(C2CC2)cn3-c2cc(F)cc(F)c2)CCN1C(=O)OC(C)(C)C [Compound 108] , please.
100 to 500 nM

Now consider Cc1nccnc1-c1cn(-c2cc(C#N)ccn2)c2ncnc(N3C[C@@H](C)N(C(=O)OC(C)(C)C)C[C@@H]3C)c12 [Compound 458] and answer again.
100 to 500 nM

Then what about the compound COc1cncc(-n2cc(-c3ccccc3F)c3c(N4CCN(C(=O)OC(C)(C)C)CC4)ncnc32)c1 [Compound 103] ?
500 to 2000 nM

# iterate: C[C@H]1CN(C(=O)OC(C)(C)C)CCN1c1ncnc2c1c(-c1ncccn1)cn2-c1cccc(Cl)c1 [Compound 116]
500 to 2000 nM

What do you have for C[C@H]1CN(C(=O)OC(C)(C)C)CCN1c1ncnc2c1c(N1CCCC1=O)cn2-c1cccc(Cl)c1 [Compound 309] ?
> 2000 nM

What about this compound? COc1cc(OC(F)(F)F)cc(-n2cc(C3CC3)c3c(N4CCN(C(=O)OC(C)(C)C)C[C@@H]4C)ncnc32)c1 [Compound 264]
500 to 2000 nM

Also CC[C@@H]1CN(c2ncnc3c2c(C2CC2)cn3-c2cc(F)cc(F)c2)CCN1C(=O)OC(C)(C)C [Compound 256] ?
500 to 2000 nM

Entry to check: CCN(CC)c1cn(-c2cccc(Cl)c2)c2ncnc(N3CCN(C(=O)OC(C)(C)C)[C@H](C)C3)c12 [Compound 375]
100 to 500 nM

Query C[C@H]1CN(C(=O)OC(C)(C)C)CCN1c1ncnc2c1c(C1CC1)cn2-c1cc(C#N)ccn1 [Compound 260] next
< 100 nM

Same thing, different compound: C[C@@H]1CN(c2ncnc3c2c(C2CC2)cn3-c2cc(F)cc(Cl)c2)[C@@H](C)CN1C(=O)OC(C)(C)C [Compound 236]
100 to 500 nM

C[C@H]1CN(C(=O)OC(C)(C)C)CCN1c1ncnc2c1c(-c1ccncc1F)cn2-c1cc(C#N)ccn1 [Compound 355] , same question.
< 100 nM

Next record, please: C[C@@H]1CN(c2ncnc3c2c(C2CC2)cn3-c2cccc(Cl)c2)[C@@H](C)CN1C(=O)OC(C)(C)C [Compound 130]
100 to 500 nM

And the next one, C[C@H]1CN(C(=O)OC(C)(C)C)CCN1c1ncnc2c1c(N(C)C)cn2-c1cccc(Cl)c1 [Compound 415] ?
100 to 500 nM

Now the compound Cc1cncc(-n2cc(C3CC3)c3c(N4CCN(C(=O)OC(C)(C)C)CC4)ncnc32)c1 [Compound 149]
500 to 2000 nM
